Test system: COLO 205 colon
Experiment: NCI-60 one-dose screen, 48 h
Test settings: 10 µM unless noted
Procedure: Cells are grown in 96 well plates and exposed to the test compound for 48 hours. Compounds are tested at a single concentration, which is 10^-5 M for most compounds. The reported endpoint is percent growth (GI% or GIPRCNT), where numbers from 0 - 100% represent growth inhibition, and numbers from -100% - 0 represent cell death. For example, a value of 40 represents 60% growth inhibition. A value of 0 means no net growth occurred over the course of the experiment. […]
About 83,000 compounds went through this panel and 20% of them were active in at least one assay; those are over-represented in the sample as a whole. Calls of active or inactive are those of the source. The calls were made as follows: active = growth percent below 10; inactive = the rest.
The reply should be one of these categories: Yes = active, No = inactive

INSERT INTO assay_data (compound, assigned_category) VALUES
  ('COc1ccc(-c2n[nH]nc2-c2cc(OC)c3c(c2)OCO3)cc1', 'Yes'),
  ('O=c1[nH]c2cc(Cl)c(Cl)cc2o1', 'No'),
  ('Nc1cc2nc3ccccc3oc-2cc1=O', 'Yes'),
  ('CCOC(=O)c1c(NC(=O)c2ccccc2)sc2c(O)c(CN(CC)CC)ccc12', 'Yes'),
  ('COc1cc(C2CC(c3ccc(Nc4ccnc5cc(Cl)ccc45)cc3)=NN2c2ccccc2)cc(OC)c1OC (stereo not given)', 'No');

Inquiry: Fill in: this test's call for `C=CCn1c(SCC(=O)Nc2ccc(C(=O)/C=C/c3ccccc3)cc2)nnc1-c1ccc(OC)c(OC)c1` is ___
Reply text: No

Inquiry: Fill in: this test's call for C=C(C)C1CCC2(C(=O)O)CCC3(C)C(CCC4C5(C)CCC(O)C(C)(C)C5CCC43C)C12 (stereo not given) is ___
Reply text: Yes

Inquiry: Fill in: this test's call for `CNC(=O)c1ccccc1Sc1ccc2c(/C=C/c3ccccn3)n[nH]c2c1` is ___
Reply text: Yes

Inquiry: Fill in: this test's call for CCCOC(=O)C1c2cc3c(cc2CC(C)C1C(=O)OCCC)OCO3 (stereo not given) is ___
Reply text: No

Inquiry: Fill in: this test's call for `CCOC(=O)C(=CNc1ccccc1Cl)C(=O)OCC` is ___
Reply text: No

###

System: K-562 leukemia
Experiment: NCI-60 one-dose screen, 48 h (100 = growth as untreated, 0 = no growth, -100 = all killed)
Test settings: 10 µM unless noted
About 83,000 compounds went through this panel and 20% of them were active in at least one assay; those are over-represented in the sample as a whole.
# label = class 1 if growth < 30% else class 0

Here are 2 compounds together with their reported answers.
INSERT INTO measurements (molecule, assigned_category) VALUES
  ('COc1cccc2nc(Nc3cccc(NC(=O)c4cc(N5CCOCC5)cc(C(F)(F)F)c4)c3)ccc12', 'class 0'),
  ('CC1(C)CC[C@]2(C(=O)N3CCNCC3)CC[C@]3(C)C(=CC[C@@H]4[C@@]5(C)CCC(=O)C(C)(C)[C@@H]5CC[C@]43C)[C@@H]2C1', 'class 0');

Inquiry: Is 30% strictly greater than the compound's reported growth? compound: `CNCCCNc1ccnc2cc(Cl)ccc12`
Reply text: class 1

Inquiry: Is 30% strictly greater than the compound's reported growth? compound: `C=C(C)[C@@H]1CC[C@]2(C)[C@H](CC=C3[C@@H]4C[C@](C)(C(=O)N5CCN(C)CC5)CC[C@]4(C)CC[C@]32C)[C@@]1(C)CCC#N`
Reply text: class 1

Inquiry: Is 30% strictly greater than the compound's reported growth? compound: `O=C(OCc1ccc2c(Cl)cc(Cl)c(O)c2n1)c1cc2ccccc2[nH]1`
Reply text: class 1

Inquiry: Is 30% strictly greater than the compound's reported growth? compound: `COc1ccccc1/C=N\NC(=S)Nc1ccc(F)cc1`
Reply text: class 0

Inquiry: Is 30% strictly greater than the compound's reported growth? compound: `CCOC(=O)c1ccc(NCCC(=O)O)cc1`
Reply text: class 0

Inquiry: Is 30% strictly greater than the compound's reported growth? compound: `O=C(/C=C/c1cccc([N+](=O)[O-])c1)c1ccc(Nc2nc(N3CCCCC3)nc(N3CCCCC3)n2)cc1`
Reply text: class 0

Inquiry: Is 30% strictly greater than the compound's reported growth? compound: `O=C1C=CC(=O)N1CO`
Reply text: class 1
